The origin of these recorded values is paper PMC4467147.

target.or.system: C-terminal Hsp90 fragment (535–732aa) of human Hsp90α (Homo sapiens)
Construct: recombinant C-terminal Hsp90 fragment (535–732aa) of human Hsp90α
test.protocol: ForteBio Octet binding to biotinylated C-terminal Hsp90α
assay.setup: Octet RED96, read-out: Kd for C-terminus of Hsp90α
recorded.metric: Kd (µM)
Give bare numbers, in µM.

**Q:** // returns reported Kd for input CN1C(=O)[C@]23SSS[C@@]1(CO)C(=O)N2[C@H]1Nc2ccccc2C1(C12c4ccccc4N[C@@H]1N1C(=O)[C@]4(CO)SS[C@]1(C(=O)N4C)[C@H]2O)[C@@H]3O (stereo partly shown)
**A:** 201

###

Record type: Kd measurement. Applies to: full length Hsp90α (Homo sapiens, UniProt P07900)
The answer consists of two parts: a number and, after it, its unit.

CN1C(=O)[C@@]23C[C@]4([C@]56C[C@@]78SS[C@@](CO)(C(=O)N7[C@H]5Nc5ccccc56)N(C)C8=O)c5ccccc5N[C@@H]4N2C(=O)[C@]1(CO)SS3
16.8 µM

Continue with the next compound.
**Q:** // returns reported Kd for input CN1C(=O)[C@]23SSS[C@@]1(CO)C(=O)N2[C@H]1Nc2ccccc2C1(C12c4ccccc4N[C@@H]1N1C(=O)[C@]4(CO)SS[C@]1(C(=O)N4C)[C@H]2O)[C@@H]3O (some centres unmarked)
**A:** 14.6 µM
